# assayExplanation: soluble on expression in E. coli; label from the status in PepcDB or PDB records
observationType: soluble on expression in E. coli

1) MSKWIILSDNHKETGILYHIYELHKDADKFLHLGDSEFSYNDTELSLYQRVKGNCDFYPEFLEEEITEENGIRAFYTHGHLYQVNQTRMKLAEKAKELGCLFAFYGHTHVAKYEQIGGIHVINPGSISQSRSQIEETFAELVYKEDENTIILNFRNRENQIIETVKIEFLEHHHHHH soluble
2) AKTEQQIADIVNRTITPLMQEQAIPGMAVAIIYEGKPYYFTWGKADIANNHPVTQQTLFELGSVSKTFNGVLGGDAIARGEIKLSDPVTKYWPELTGKQWRGISLLHLATYTAGGLPLQIPDDITDKAALLRFYQNWQPQWTPGAKRLYANSSIGLFGALAVKPSGMSYEEAMTRRVLQPLKLAHTWITVPQSEQKNYAWGYREGKPVHVSPGQLDAEAYGVKSSVIDMARWVQANMDASHVQEKTLQQGIELAQSRYWRIGDMYQGLGWEMLNWPLKADSIINGSDSKVALAALPAVEVNPPVPAVKASWVHKTGSTGGFGSYVAFVPEKNLGIVMLANKSYPNPVRVEAAWRILEKLQ soluble

---

# assayExplanation: soluble on expression in E. coli; label from the status in PepcDB or PDB records
observationType: soluble on expression in E. coli

Solved entries:
1. MNPLERKVKQEAEEDGYSSFDEFPAGAIRIPYEELMAKVRAKKAEAEAAQDLVNENSFDQFVAAPPAPPVQKPAVEPSPSCSPETVAVQKFVTEFMQAAGGSRELRIIKDSQETKIVWKTSPAKPKAPPVEDDPTDPTDSQVSTVSSIIPVSSPRGKRRIVVSSDKDSDGDETPTEDNVNNDDQDVTPKKNRKPPVEVVTPSPAKRLRGLNLRSAHSSSDSESDFQDTQCEDSQDSDYFPDTQEQRDRPADFRIPKNAAYDPLDLSYN not soluble
2. MQFERISTEQKKLSLIQTFLHQNALKLDEQIEYFVVGYNDNEQIVVCGGLAGNIIKCVAIDESLRGSGVALQLITELVDLAYTLKRPHLFIYTKPEYATLFKSCGFYIISDANPYVVLLENSATRLQKQCSLWEKMRVDGNRIGSIVMNANPFTLGHRYLIEQALQQCDHLHLFIVGEDASQFSYTERFEMIQQGIFDLSNITLHSGSDYIISRATFPNYFLKDQLITDESYFEIDLKLFRLHIAQALGITHRFVGTELNCPVTAEYNRQMHYWLMDAEMNAPKINVIEIPRKTASNHIISASTVRKHLAEKNWAQLAEFVPMTTLNYLQKCGRF soluble
3. MKFGTVWKYYFTESLLKATIRTPSQLNLAPNALRPVLDQLCRLFPQNPTVQIRPIRLAGVRGEEIKAQASATQLIFHIHGGAFFLGSLNTHRALMTDLAARTQMQVIHVDYPLAPEHPYPEAIDAIFDVYQALLVQGIKPKDIIISGDSCGANLALALCLRLKQQPELMPSGLILMSPYLDLTLTSESLRFNQKHDALLSIEALQAGIKHYLTDDIQPGDPRVSPLFDDLDGLPPTLVQVGSKEILLDDSKRFREKAEQADVKVHFKLYTGMWHNFQMFNAWFPEAKQALADIAEFAHSLDLD soluble
4. SSEASRDDYKIQSFDAQTQQLLKTALKDPGAVDLERVANVIVDHSLQDCVFSKEAGRMCYAIIQAESKQAGQSVFRRGLLNRLQKEYDAREQLRACSLQGWVCYVTFICNIFDYLRVNNMPMMALVNPVYDCLFQLAQPESLSREEEVDCLVLQLHRVGEQLEKMNGQRMDELFILIRDGFLLPTDLSSLARLLLLEMIEFRAAGWKTTPAAHKYYYSEVSD soluble

Query: Note down soluble on expression in E. coli recorded for `EVVPLAFTKAATQPAPGVKPYNALQVAGRDIYIREGCYNCHSQMIRPFRAETERYGHYSVAGESVYDHPFQWGSKRTGPDLARVGGRYSDEWHRIHLLNPRDVVPESNMPAFPWLARNKVDVDATVANMKALRKVGTPYSDEEIAKAPEALANKSELDAVVAYLQGLGLALKNVR`
Response: not soluble

Query: Note down soluble on expression in E. coli recorded for `MGSDKIHHHHHHMELTESIRLLFPPEERAQLDISAIKGDASNRQYYRVTGQGSVSVVCADPAFRATAVENYPFLIVRDLFARHGIRVPELLGMVHEQGLLRLEDCGDLMLQDEVPLLDRNRLSARYRQVIDLLVRIQSIRPDKDALTTTLPFSLSFDHEKLMFEFDFFIEHALNGYFAGRLGKPAIARLREEFINICDLLVLPKHFVLNHRDFHSRNIMLFRAEPVVIDFQDARLGLPQYDAVSLLRDSYVRLDPGMVNELKRYHFNQLVQLGLTSMGEAEYLRLFDLMAFQRNVKAIGTFCYQTTVAGNRTFEPSIAATLSYLREYIEARPELAMAGRLLKPIIPEISR`
Response: not soluble

---

# assayExplanation: soluble on expression in E. coli; label from the status in PepcDB or PDB records
observationType: soluble on expression in E. coli

1) MMETQNVKDTVRQIFTEYLTANGHRKTPERYAILETIYSIDGHFDIDMLYSRMMDQENFRVSRATLYNTIILLINARLIIKHQFGTSSQYEKSYNRETHHHQICTQCGKVTEFQNEELQHAIENTKLSRFQLSHYSLYIYGLCSKCDRANKRKKVSNNNKKEK not soluble
2) GSMTEADVNPKAYPLADAHLTKKLLDLVQQSCNYKQLRKGANEATKTLNRGISEFIVMAADAEPLEIILHLPLLCEDKNVPYVFVRSKQALGRACGVSRPVIACSVTIKEGSQLKQQIQSIQQSIERLLV soluble
3) MGSDKIHHHHHHMFKPMASVFTNHQIAGHYRAIERAQKCVVPFHFEIQGQEYPKPKPERNWLRRLSGTSSEKYAMVELTPTKVVLWSPEGRNLGEMPLSAVRRIQIGAIRCHVTEGLDPRHAFRATIFVLTDSGNYYFANSDMEVLPAICKFAHEHQVPVEDPLRLIPLLKVGWRVAAVTLHETYAQLVAHTGYPADKV not soluble
4) MNNYTIKDITRASGGFAMLAVDQREAMRLMFAAAGAKTPVADSVLTDFKVNAAKILSPYASAVLLDQQFCYRQAVEQNAVAKSCAMIVAADDFIPGNGIPVDNVVLDKKINAQAVKRDGAKALKLLVLWRSDEDAQQRLNMVKEFNELCHSNGLLSIIEPVVRPPRCGDKFDREQAIIDAAKELGDSGADLYKVEMPLYGKGARSDLLTASQRLNGHINMPWVILSSGVDEKLFPRAVRVAMEAGASGFLAGRAVWSSVIGLPDTELMLRDVSAPKLQRLGEIVDEMMAKRR soluble

---

# assayExplanation: soluble on expression in E. coli; label from the status in PepcDB or PDB records
observationType: soluble on expression in E. coli

1) MAKMRISPELKKLIEKYRSVKDTEGMSPAKVYKLVGENENLYLKMTDSRYKGTTYDVEREKDMMLWLEGKLPVPKVLHFERHDGWSNLLMSEADGVLCSEEYEDEQSPEKIIELYAECIRLFHSIDISDCPYTNSLDSRLAELDYLLNNDLADVDSENWEEDTPFKDPRELYDFLKTEKPEEELVFSHGDLGDSNIFVKDGKVSGFIDLGRSGRADKWYDIAFCVRSIREDIGEEQYVELFFDLLGIKPDWEKIKYYILLDELF soluble
2) MQERILFGTYTKKTSQGIYQGTLDTTAKTLTNDGLLAATQNPTYLALSAKDCLYSVDKEDDEGGIAAWQIDGQTAHKLNTVVAPGTPPAYVAVDEARQLVYSANYHKGTAEVMKIAADGALTLTDTVQHSGHGPRPEQDGSHIHYTDLTPDNRLAVIDLGSDKVYVYNVSDAGQLSEQSVLTMEAGFGPRHLVFSPDGQYAFLAGELSSQIASLKYDAQTGAFTQLGIVKTIPADYTAHNGAAAIRLSHDGHFLYVSNRGYNTLAVFAVTADGHLTLIQQISTEGDFPRDFDLDPTEAFVVVVNQNTDNATLYARDLTSGKLSLLQKDVTVPEGVCVRFLEHHHHHH soluble

---

# assayExplanation: soluble on expression in E. coli; label from the status in PepcDB or PDB records
observationType: soluble on expression in E. coli

Solved entries:
1) MSLIRWCFTMKLAVIGGGDLQDSNHSPINERLIELTNKQYPKVLFIPTASHDDESYIKLFLDTFEKQLHCDVQILGIIADTPSKYEIDEMIQSADLIYLGGGNYIQMVTEWKEHKLDEKLLLALEQGTLIAGYSAGAMCWFTSSIRSDYEGSGYIESNGWGIVNKRFCPHYNQLNRMNAFHSFLQNHQGNIEGIALEDNCALYITEESFEIIGEPEKAWEFYMSDNKLIRQHFDITLKSYLEGHHHHHH not soluble
2) MGSSHHHHHHSSGLVPAGSHMASMTGGQQMGRGSMSLQVNLLNNTFANPFMNAAGVMCTTTEELVAMTESASGSLVSKSCTPALREGNPTPRYQALPLGSINSMGLPNNGFDFYLAYAAEQHDYGKKPLFLSMSGLSMRENVEMCKRLAAVATEKGVILELNLSCPNVPGKPQVAYDFDAMRQCLTAVSEVYPHSFGVKMPPYFDFAHFDAAAEILNEFPKVQFITCINSIGNGLVIDAETESVVIKPKQGFGGLGGRYVLPTALANINAFYRRCPGKLIFGCGGVYTGEDAFLHVLAGASMVQVGTALQEEGPSIFERLTSELLGVMAKKRYQTLDEFRGKVRTLDGTAESTR soluble
3) MGHHHHHHSHMKVQGAGQLRLSIDAQDRVLLLHIIEGKGLISKQPGTCDPYVKISLIPEDSRLRHQKTQTVPDCRDPAFHEHFFFPVQEEDDQKRLLVTVWNRASQSRQSGLIGCMSFGVKSLLTPDKEISGWYYLLGEHLGRTKHLKVARRRL soluble
4) MNHLTNQYVMLHDEKRCIGCQACTVACKVLNDVPEGFSRVQVQIRAPEQASNALTHFQFVRVSCQHCENAPCVSVCPTGASYRDENGIVQVDKSRCIGCDYCVAACPFHVRYLNPQTGVADKCNFCADTRLAAGQSPACVSVCPTDALKFGRLDESEIQRWVGQKEVYRQQEARSGAVSLYRRKEVHQEGKA not soluble
5) MPPKKNVVEEKPALIGRLGTNLKVGILGLPNVGKSTFFNVLTKSEAQAENFPFCTIDPNESRVAVQDDRFDWLVNHYKPASKVPAFLNVTDIAGLVKGASEGQGLGNAFLSHVSACDALFHLCRAFDDDDVTHVEGEVDPVRDLEIISNELFAKDLQFIDGPLDKVEKLFTRANDKTKKIEYDTLVRVKKCLEEKKPVRQELWNEKEIEILNKHLFLTAKPIVYLVNLSEKDYIRKKNKWLPKIKAWIDTNDAGAVLIPFSGAFELKLLDMPEDERQKYLKEQGVTSNLDKIVHTGYKALQLEYFFTSGEDEVKAWTIQVGTPAPKAAGRIHTDFEKGFIMAEVMKVADLIELGDEAKCKAGGKYRQQGKTYIVQDGDVIFFKFNAGAGLQAKKK not soluble
6) MGSDKIHHHHHHVLTNQTGYEYHKCTDLTAMIKDYIDNWQKNNAHFDGIYSGFMTGSKQIELFMDFLDVFYEKNTMLLVDPVMGDDGRTYGIYSAALLDGMKALSRKADVITPNLTEACLLADYDIEKVYSDTRKDVLLPIAAEISEKLRCLSGKNQDVIITGIKCRDDKSPFIYNLVTTANGTTTHRSHFFDVSFSGTGDLFASVICGSRLNGFSTEEAAERAGKFLYDSIADTMNDDTAPNDGVNFEKFLRELM not soluble
7) MPWIAKRRGHDADFFIMRIPRIYHPELLTSGTQISLCEDAANHIGRVLRMGPGQALQLFDGSNQVFDAEIISASKKSVEVQVMKGEIDDRESPLHIHLGQVMSRGEKMEFTIQKSIELGVSLITPLFSERCGVKLDSERLNKKRQQWQKIAIAACEQCGRNRVPEIRPPMALEAWCAEQDSGLKLNLHPRAHASINTLPLPVERVRLLIGPEGGLSADEIAMTARYQFTDILLGPRVLRTETTALTAITALQVRFGDLG not soluble
8) MAHHHHHHMVFSIPSYLCLGDRPKKVVDERLHGVNFLTSRPKTGHYPDALFDKEFRYVYNGDRYPDPETMARREQMENRKRYITATGFISVFRPKKGEGLGSNYGLLQQEPYIHMPDHPQTRGPQPFPKVKPRQIYTSPSKAGSYGTPGLAITDIGNEYIATIYDQERINAKKERDVWRQRMPPVPFKPVGRRGYTFDEGPATGVSMCYIMTCPFREKRVQPVMKHFIIDKMWLPAGYIPDRPPPVEYWEDPYNGFDPRVDPKSRLKKSEDSIFRTGFRGDNFFYTRSIVFRRL not soluble

Query: Note down soluble on expression in E. coli recorded for `MGSDKIHHHHHHLSGQQDDVEDGMDQDTLTRIAEALERMAPVPQSTPDFSAASGFVWHVEPDRLEPVPEINRVELDLLVGIDRSRDTLLENTRRFAAGHAANNALLWGARGMGKSSLVKAIHGALVTDHPELKLVELQREDLPSVARLLNHLRGAPCRFILFCDDLSFSHDDQHYKSLKAVLDGGIEGRPENVVFYATSNRRHLMPRDMIENERSSAINPSEAVEEKVSLSDRFGLWLGFHPCNQDAYLAMIEGYCAAYGVTVDPERLRAEAIEWQATRGARSGRVAWQFFTDLAGREGVALR`
Response: not soluble

Query: Note down soluble on expression in E. coli recorded for `MGSDKIHHHHHHMEKFIESVANFIDEEDVKVLKAIGSDPIVLHSIKKIFDYPEKANKYLILLRDSPVAVYLVAKISERLSRYLEGEDEAKCFAVFLTALRELRECGDRRVLQNMFLLLKEAIERRLSDGKYEDAAKLVMEFQDFGFKSYVKKVLFFALEVSEEGDYRRAMRILELLPETDAVIDAKASVLLEWGRSLAMSNPEAGMKKIEESLRLKDTVEARLAMAEIHESMGNYEKAYFIYTSLRSLYPGIDRRIARMLMEWGEEIGDVEKLREAYNLAMGDRLLAEEIERRIKKLEAQRLSGS`
Response: not soluble

Query: Note down soluble on expression in E. coli recorded for `AIAVQKLENIPALVHLKEKNIISIRVFLQGRSIVGIQLNYNDNEDGQVYGSTAGKEMVARLSKEEHIIGVEGTYNPSALTQIIFTTNQPRQLMVGYHVGNYQYSSYPDDPSLVLKGACVSWRAGGIKSILFLWGSENSSCVKYGHSG`
Response: soluble
